# condition.context: in water, 318.15 K
recorded.endpoint: solubility (mole fraction)
Write no unit; give the number alone.

IN: Annotate the compound C[C@@H]1O[C@@H](O[C@H]2[C@H](Oc3cc(O)c4c(c3)O[C@H](c3ccc(O)cc3)CC4=O)O[C@H](CO)[C@@H](O)[C@@H]2O)[C@H](O)[C@H](O)[C@H]1O with its measured solubility (mole fraction).
OUT: 2.32e-05

---

# condition.context: in ethanol, 283.15 K
recorded.endpoint: solubility (mole fraction)
Write no unit; give the number alone.

IN: Annotate the compound C[C@@H]1O[C@@H](O[C@H]2[C@H](Oc3cc(O)c4c(c3)O[C@H](c3ccc(O)cc3)CC4=O)O[C@H](CO)[C@@H](O)[C@@H]2O)[C@H](O)[C@H](O)[C@H]1O with its measured solubility (mole fraction).
OUT: 2.26e-05

---

# condition.context: in water, 303.15 K
recorded.endpoint: solubility (mole fraction)

IN: Annotate the compound C[C@@H]1O[C@@H](O[C@H]2[C@H](Oc3cc(O)c4c(c3)O[C@H](c3ccc(O)cc3)CC4=O)O[C@H](CO)[C@@H](O)[C@@H]2O)[C@H](O)[C@H](O)[C@H]1O with its measured solubility (mole fraction).
OUT: 6.15e-06

---

# condition.context: in water, 283.15 K
recorded.endpoint: solubility (mole fraction)
Write no unit; give the number alone.

IN: Annotate the compound C[C@@H]1O[C@@H](O[C@H]2[C@H](Oc3cc(O)c4c(c3)O[C@H](c3ccc(O)cc3)CC4=O)O[C@H](CO)[C@@H](O)[C@@H]2O)[C@H](O)[C@H](O)[C@H]1O with its measured solubility (mole fraction).
OUT: 6.21e-07

---

# condition.context: in ethanol, 318.15 K
recorded.endpoint: solubility (mole fraction)
Write no unit; give the number alone.

IN: Annotate the compound C[C@@H]1O[C@@H](O[C@H]2[C@H](Oc3cc(O)c4c(c3)O[C@H](c3ccc(O)cc3)CC4=O)O[C@H](CO)[C@@H](O)[C@@H]2O)[C@H](O)[C@H](O)[C@H]1O with its measured solubility (mole fraction).
OUT: 0.000102

---

# condition.context: in water, 313.15 K
recorded.endpoint: solubility (mole fraction)

IN: Annotate the molecule C[C@@H]1O[C@@H](O[C@H]2[C@H](Oc3cc(O)c4c(c3)O[C@H](c3ccc(O)cc3)CC4=O)O[C@H](CO)[C@@H](O)[C@@H]2O)[C@H](O)[C@H](O)[C@H]1O with its measured solubility (mole fraction).
OUT: 1.55e-05

---

# condition.context: in water, 293.15 K
recorded.endpoint: solubility (mole fraction)

IN: Annotate the compound C[C@@H]1O[C@@H](O[C@H]2[C@H](Oc3cc(O)c4c(c3)O[C@H](c3ccc(O)cc3)CC4=O)O[C@H](CO)[C@@H](O)[C@@H]2O)[C@H](O)[C@H](O)[C@H]1O with its measured solubility (mole fraction).
OUT: 9.76e-07

---

# condition.context: in water, 288.15 K
recorded.endpoint: solubility (mole fraction)
Write no unit; give the number alone.

IN: Annotate the molecule C[C@@H]1O[C@@H](O[C@H]2[C@H](Oc3cc(O)c4c(c3)O[C@H](c3ccc(O)cc3)CC4=O)O[C@H](CO)[C@@H](O)[C@@H]2O)[C@H](O)[C@H](O)[C@H]1O with its measured solubility (mole fraction).
OUT: 7.14e-07
